- MEASURED TARGET: Human MGAT-2 (Homo sapiens, UniProt Q3SYC2)
- Construct: made in house; host or cells: Sf9 cells (membrane preparation)
- Sequence (Q3SYC2 whole entry): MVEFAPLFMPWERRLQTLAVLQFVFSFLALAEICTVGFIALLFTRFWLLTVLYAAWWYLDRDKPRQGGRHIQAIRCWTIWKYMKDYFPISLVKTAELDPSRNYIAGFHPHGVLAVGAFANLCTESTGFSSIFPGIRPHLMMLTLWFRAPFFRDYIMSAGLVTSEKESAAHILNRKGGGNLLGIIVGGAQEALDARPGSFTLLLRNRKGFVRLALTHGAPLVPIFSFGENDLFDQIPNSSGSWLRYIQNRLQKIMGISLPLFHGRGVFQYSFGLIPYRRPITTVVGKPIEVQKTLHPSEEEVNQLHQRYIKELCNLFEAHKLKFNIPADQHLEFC
- EXPERIMENT NOTES: MGAT LCMS Assay
- Assay type: biochemical
- CONDITIONS: human MGAT2 membranes expressed in Sf9 cells; 100 μM 2-oleoylglycerol, 15 μM oleoyl-coenzyme A; read-out: h-MGAT LCMS IC50
# reported IC50; entries follow
// note: answer is a bare numeric in µM

Field: example entries. Status: answers known.
Cc1ccc(-c2c(Cl)c(-c3ccc(OCCCC(F)(F)F)cc3)[nH]c(=O)c2-c2nnn[nH]2)cc1 [Example 19]: 0.1
COc1ccc(NC(=O)c2c(-c3ccc(C)cc3)c(F)c(-c3ccc(OCCCC(F)(F)F)cc3)[nH]c2=O)cc1 [Example 3]: 0.019
O=c1[nH]c(-c2ccc(OCCCC(F)(F)F)cc2F)cc(-c2ccc3c(c2)CCCC3)c1-c1nn[nH]n1 [Example 89]: 0.024
CN(C)c1ccc(-c2cc(-c3ccc(OCCCCCC(F)(F)F)cc3)[nH]c(=O)c2-c2nnn[nH]2)cc1 [Example 59]: 0.006
O=c1cc(-c2ncc(C3CC3)s2)cc(-c2ccc(OCCCCCC(F)(F)F)cc2F)[nH]1 [Example 165]: 0.42
CCOc1ccc(NC(=O)c2c(-c3cnc(N(C)C)s3)cc(C3CCCCC3)[nH]c2=O)cc1 [Example 8]: 0.05
CCOc1ccc(NC(=O)c2c(-c3ccc(C(C)(C)C)cc3)cc(-c3ccc(OCCCC(F)(F)F)cc3)[nH]c2=O)cc1 [Example 45]: 0.009
CCc1cnc(-c2cc(-c3ccc(CCC4CC4)cc3)[nH]c(=O)c2-c2nn[nH]n2)s1 [Example 149]: 0.052
C/C=C/c1c(-c2ccc(CCCCC)cc2)[nH]c(=O)c(C(=O)Nc2ccc(OCC)cc2)c1-c1ccc(C)cc1 [Example 52]: 0.003
CCc1cnc(-c2cc(-c3ccc(OCCCCCC(F)(F)F)cc3F)[nH]c(=O)c2-c2nnn[nH]2)s1 [Example 148]: 0.0008

Endpoint output: IC50 of O=c1[nH]c(-c2ccc(OCCCCCC(F)(F)F)cc2F)cc(-c2ccc(C3CC3)s2)c1-c1nn[nH]n1 [Example 96] . Value?
0.001

// lookup IC50 for O=c1[nH]c(-c2ccc(OCCCCCC(F)(F)F)cc2)cc(-c2ccn(CC3CC3)n2)c1-c1nnn[nH]1 [Example 110]
0.043

Entry under review: CC(C)n1ccc(-c2cc(-c3ccc(CCCCC(F)(F)F)cc3)[nH]c(=O)c2-c2nn[nH]n2)n1 [Example 74] . Reported IC50?
0.255

Fill in the blank: the reported IC50 of CCc1ccc(-c2cc(-c3ccc(OCCCCCC(F)(F)F)cc3C(F)(F)F)[nH]c(=O)c2C(=O)NS(=O)(=O)C2CC2)s1 [Example 154] is ____.
0.002

Need IC50 of CCc1cnc(-c2cc(-c3ccc(OCCCCCC(F)(F)F)cc3F)[nH]c(=O)c2)s1 [Example 166] , thanks.
0.07

Looking for the measured IC50 of COc1ccc(NC(=O)c2c(-c3ccc(C)cc3)cc(-c3ccc(OCCCC(F)(F)F)cc3)[nH]c2=O)cc1 [Example 2] , can you help?
0.03

Dear colleague, I am looking for the recorded IC50 of the following molecule: CCCCCc1ccc(-c2cc(-c3ccc(C)cc3)c(-c3nn[nH]n3)c(=O)[nH]2)cc1 [Example 30]
0.15
